target: human CD3 (human, UniProt P07766 23-207; P04234 22-171; P09693 23-182); assay: cell-based or functional assay
Sequence (P07766 23-207, chain 1 of 3): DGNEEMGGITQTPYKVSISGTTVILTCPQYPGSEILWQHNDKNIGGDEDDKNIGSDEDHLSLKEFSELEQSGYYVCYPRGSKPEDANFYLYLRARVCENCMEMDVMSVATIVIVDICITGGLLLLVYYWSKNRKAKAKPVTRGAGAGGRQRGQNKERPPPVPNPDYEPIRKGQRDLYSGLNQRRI
Sequence (P04234 22-171, chain 2 of 3): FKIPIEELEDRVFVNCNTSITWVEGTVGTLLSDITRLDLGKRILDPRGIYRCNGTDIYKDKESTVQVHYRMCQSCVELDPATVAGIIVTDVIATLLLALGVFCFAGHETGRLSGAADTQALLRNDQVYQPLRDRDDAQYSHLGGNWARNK
Sequence (P09693 23-182, chain 3 of 3): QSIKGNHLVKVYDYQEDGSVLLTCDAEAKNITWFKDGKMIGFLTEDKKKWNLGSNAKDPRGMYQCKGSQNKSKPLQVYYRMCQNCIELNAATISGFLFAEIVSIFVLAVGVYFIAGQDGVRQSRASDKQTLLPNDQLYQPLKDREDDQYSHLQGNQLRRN
Label yes for high-side Top signal_Fold change (Jurkat-NFAT-luciferase activation, normalized to ch40-C12-C10-E9) (at or above 0.8 fold) and no for low-side Top signal_Fold change (Jurkat-NFAT-luciferase activation, normalized to ch40-C12-C10-E9) (below it).

binder	cat
hu40E9-L2H7 (antibody, V domains shown) VH: EVQLVQSGAEVKKPGSSVKVSCKASGYTFSSYVIHWVRQAPGQGLEWMGYINPGNGVIKYNEKFKGRVTLTSDKSTSTAYMELSSLRSEDTAVYYCARDSYSSYDGFAYWGQGTLVTVSS VL: EIVLTQSPDFQSVTPKEKVTITCSASSSVSYMHWYQQKPDQSPKRLIYDTSKLASGVPSRFSGSGSGTDFTLTINSLEAEDAATYYCQQWSSNPPTFGGGTKVEIK	no
hu40E9-L2H16 (antibody, V domains shown) VH: EVQLVQSGAEVKKPGSSVKVSCKASGYTFSDYVIHWVRQAPGQGLEWMGYINPYNDVIKYNEKFKGRVTLTSDKSTSTAYMELSSLRSEDTAVYYCARDSYYSYDGFAYWGQGTLVTVSS VL: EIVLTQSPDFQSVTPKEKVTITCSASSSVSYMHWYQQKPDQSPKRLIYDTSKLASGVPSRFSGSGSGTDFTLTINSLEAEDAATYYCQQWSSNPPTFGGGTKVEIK	yes
hu40E9-L4H7 (antibody, V domains shown) VH: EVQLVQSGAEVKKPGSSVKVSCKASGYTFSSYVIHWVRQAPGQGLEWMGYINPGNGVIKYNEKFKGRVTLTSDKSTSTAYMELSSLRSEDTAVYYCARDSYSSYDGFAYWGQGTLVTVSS VL: EIVLTQSPDFQSVTPKEKVTITCSASSSVSYMHWYQQKPDQSPKRLIYDTSKLASGVPSRFSGSGSGTDFTLTINSLEAEDAATYYCQQWRSRPPTFGGGTKVEIK	yes
hu40E9-L2H11 (antibody, V domains shown) VH: EVQLVQSGAEVKKPGSSVKVSCKASGYTFSSYVIHWVRQAPGQGLEWMGYINPYNDVIKYNEKFKGRVTLTSDKSTSTAYMELSSLRSEDTAVYYCARDSYYSYRAFAYWGQGTLVTVSS VL: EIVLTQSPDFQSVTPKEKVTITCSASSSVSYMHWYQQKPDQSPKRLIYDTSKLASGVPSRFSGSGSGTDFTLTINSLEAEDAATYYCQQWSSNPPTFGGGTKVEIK	yes
hu40E9-L4H8 (antibody, V domains shown) VH: EVQLVQSGAEVKKPGSSVKVSCKASGYTFSSYVIHWVRQAPGQGLEWMGYINPGNDVIKYNEKFKGRVTLTSDKSTSTAYMELSSLRSEDTAVYYCARESYSSYDGFAYWGQGTLVTVSS VL: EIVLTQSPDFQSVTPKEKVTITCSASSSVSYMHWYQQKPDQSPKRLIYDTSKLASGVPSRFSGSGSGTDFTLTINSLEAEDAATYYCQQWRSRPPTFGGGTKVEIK	no
hu40E9-L2H15 (antibody, V domains shown) VH: EVQLVQSGAEVKKPGSSVKVSCKASGYTFSSYVIHWVRQAPGQGLEWMGYINPYNDVIKYNEKFKGRVTLTSDKSTSTAYMELSSLRSEDTAVYYCARGSYYSYDGFAYWGQGTLVTVSS VL: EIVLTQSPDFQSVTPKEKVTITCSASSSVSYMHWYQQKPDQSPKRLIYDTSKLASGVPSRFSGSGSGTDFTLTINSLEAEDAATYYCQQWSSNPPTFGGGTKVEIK	no
hu40E9-L2H13 (antibody, V domains shown) VH: EVQLVQSGAEVKKPGSSVKVSCKASGYTFSSYVIHWVRQAPGQGLEWMGYINPYNDVIKYNEKFKGRVTLTSDKSTSTAYMELSSLRSEDTAVYYCARDGYYSYDGFAYWGQGTLVTVSS VL: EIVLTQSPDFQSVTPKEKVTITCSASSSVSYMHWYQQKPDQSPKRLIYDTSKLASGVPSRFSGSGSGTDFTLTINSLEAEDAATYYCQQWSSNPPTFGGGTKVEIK	no
